I'd appreciate it if you could supply inhibition values for the items below.
Assay: TLR3 IRF3 reporter activation blockers – cell-based, poly I:C stimulus, luciferase, 10K MLSCN set, primary screen (AID 602277)
Details: HEK293-TLR3 RL24 IRF3 luciferase reporter, at 10 µM, hits give high values
Calls of active or inactive are those of the source.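 The calls were made as follows: active = inhibition of the reporter signal at or above 50%; inactive = inhibition below 50%.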

Some compounds with recorded inhibition:
| compound | inhibition |
| --- | --- |
| c1ccc(Oc2ccc(-n3cnnn3)cc2)cc1 | 0.336% (inactive) |
| COC(=O)C1=C(C)NC2=C(C(=O)CCC2)C1c1coc2ccccc2c1=O (stereo not drawn) | 48.4% (inactive) |
| Cc1nc2ncnn2c(N2CCC(C(=O)NC3CCCC3)CC2)c1Cc1ccccc1 | 25.7% (inactive) |
| Cc1cccc(C)c1NC(=O)CS(=O)CC(=O)NC1CCCc2ccccc21 (stereo not drawn) | 20.9% (inactive) |
| COc1ccc(CCNc2oc(COc3ccccc3Cl)nc2C#N)cc1OC | -11% (inactive) |
| CCc1cc2c(CN3CCN(CCO)CC3)cc(=O)oc2cc1O | 27% (inactive) |
| O=C(NCCN1CCCCCC1)c1ccc(CS(=O)(=O)c2ccc(Br)cc2)o1 | 16.4% (inactive) |
| CC(C)(C)NC(=O)NC(=O)COc1ccccc1C#N | -67.2% (inactive) |

Working through the 8 compounds below one at a time, give inhibition for each.
1. CS(=O)(=O)N1CCc2cc(S(=O)(=O)Nc3ccc4oc5c(c4c3)CCCC5)ccc21
2. COC(=O)[C@H](C)NC(=O)Nc1cc(OC)ccc1OC
3. Cc1nn(C)cc1NC(=O)CCSc1nc(-c2ccco2)cc(C(F)(F)F)n1
4. CSc1ccc(Cn2nnc(C(=O)NCc3ccccc3)c2N)cc1
5. CCOC(=O)c1cnc2c(OC)cccc2c1N1CCN(c2ccc(OC)cc2)CC1
6. COc1cc2c(cc1NCc1ccccn1)oc1ccccc12
7. CCN(CC)S(=O)(=O)c1ccc(NC2c3ccccc3C(=O)N2CCN2CCOCC2)cc1 (stereo not drawn)
8. COc1cccc(S(=O)(=O)Nc2ccc(C(=O)N3CCN(C(=O)c4ccco4)CC3)cc2)c1

A.
1: 3.23% (inactive); 2: -52% (inactive); 3: -43.3% (inactive); 4: 12.9% (inactive); 5: 24.8% (inactive); 6: -70.7% (inactive); 7: 10.7% (inactive); 8: 7.91% (inactive)

Required: inhibition, one value per compound below.
1. COc1ccc(N2CCN(C(c3ccccc3)c3sc4nc(C)nn4c3O)CC2)cc1 (stereo not drawn)
2. CC1(C)C(=O)Nc2ccccc2N1C(=O)COC(=O)Cn1cnc2ccccc2c1=O
3. COc1ccc(C(c2nnnn2C2CCCC2)N2CCC(C)CC2)c(OC)c1 (stereo not drawn)
4. CCOC(=O)CSC1=C(C#N)C(c2ccc(C)o2)CC(=O)N1 (stereo not drawn)
5. CCC(=O)Nc1c2c(nn1-c1ccccc1C)CSC2
6. CSc1ccc(S(=O)(=O)Nc2cccc(F)c2)cc1
7. O=C(c1ccccc1F)N1CCN(Cc2cccc(Cl)c2)CC1

A.
["11.1% (inactive)", "20.1% (inactive)", "3.27% (inactive)", "87.6% (active)", "21.4% (inactive)", "26.6% (inactive)", "10.5% (inactive)"]
